- target_system: RORγ ligand binding domain (Homo sapiens, UniProt P51449)
- method_description: RORγ radioligand competition binding assay (SPA)
- condition_parameters: competition with tritiated 2-(4-(ethylsulfonyl)phenyl)-N-(4-(2-(methoxymethyl)phenyl)thiophen-2-yl)acetamide (25 nM), hRORγ LBD
parameter_measured: IC50 (nM)

Below are worked cases with known answers.
| compound | uom | measured_number |
| --- | --- | --- |
| CC(=O)N1Cc2cc(S(C)(=O)=O)ccc2C1C(=O)Nc1ccc(C(N(C)C)(C(F)(F)F)C(F)(F)F)cc1 (centres unmarked) | nM | 6.31 |
| CS(=O)(=O)c1ccc2c(c1)CN(C(=O)CCC(=O)O)C2C(=O)Nc1ccc(C(C#N)(C(F)(F)F)C(F)(F)F)cc1 (centres unmarked) | nM | 10 |
| CC(=O)N1Cc2cc(S(C)(=O)=O)ccc2C1C(=O)Nc1ccc(C(NCCO)(C(F)(F)F)C(F)(F)F)cc1 (centres unmarked) | nM | 316 |
| CC(=O)N1Cc2cc(S(C)(=O)=O)ccc2C1C(=O)Nc1ccc(C(NC2CCOCC2)(C(F)(F)F)C(F)(F)F)cc1 (centres unmarked) | nM | 100 |
| COC(=O)CC(c1ccc(NC(=O)C2c3ccc(S(C)(=O)=O)cc3CN2C(C)=O)cc1)(C(F)(F)F)C(F)(F)F (centres unmarked) | nM | 25.1 |
| CS(=O)(=O)c1ccc2c(c1)CN(C=O)C2C(=O)Nc1ccc(C(C#N)(C(F)(F)F)C(F)(F)F)cc1 (centres unmarked) | nM | 10 |

P = CC(=O)N1Cc2cc(S(C)(=O)=O)ccc2C1C(=O)Nc1ccc(C(NCCCS(C)(=O)=O)(C(F)(F)F)C(F)(F)F)cc1 (centres unmarked)
Q = CS(=O)(=O)c1ccc2c(c1)CNC2C(=O)Nc1ccc(C(C#N)(C(F)(F)F)C(F)(F)F)cc1 (centres unmarked)
Consider P and Q . Which of these has its IC50 at a higher number? Answer = label.
P

* * *

- target_system: RORγ ligand binding domain (Homo sapiens, UniProt P51449)
- method_description: RORγ radioligand competition binding assay (SPA)
- condition_parameters: competition with tritiated 2-(4-(ethylsulfonyl)phenyl)-N-(4-(2-(methoxymethyl)phenyl)thiophen-2-yl)acetamide (25 nM), hRORγ LBD
pIC50: −log10 of the molar value.
parameter_measured: pIC50

Worked cases, answers included:
| compound | pIC50 |
| --- | --- |
| CCOC(=O)CC(c1ccc(NC(=O)C2c3ccc(S(C)(=O)=O)cc3CN2C(C)=O)cc1)(C(F)(F)F)C(F)(F)F (stereo not shown) | 7.80 |
| CS(=O)(=O)c1ccc2c(c1)CN(C(=O)CN)C2C(=O)Nc1ccc(C(C#N)(C(F)(F)F)C(F)(F)F)cc1 (stereo not shown) | 7.60 |

P = CS(=O)(=O)c1ccc2c(c1)CN(C(=O)CO)C2C(=O)Nc1ccc(C(C#N)(C(F)(F)F)C(F)(F)F)cc1 (stereo not shown)
Q = CC(=O)N1Cc2cc(S(C)(=O)=O)ccc2C1C(=O)Nc1ccc(C(n2ccnn2)(C(F)(F)F)C(F)(F)F)cc1 (stereo not shown)
R = CC(=O)N1Cc2cc(S(C)(=O)=O)ccc2C1C(=O)Nc1ccc(C(CCO)(C(F)(F)F)C(F)(F)F)cc1 (stereo not shown)
Rank by pIC50 (largest to smallest). // rank by listing labels in the order requested
P, Q, R

A = CNC(=O)N1Cc2cc(S(C)(=O)=O)ccc2C1C(=O)Nc1ccc(C(C#N)(C(F)(F)F)C(F)(F)F)cc1 (stereo not shown)
B = COC1(CNC(c2ccc(NC(=O)C3c4ccc(S(C)(=O)=O)cc4CN3C(C)=O)cc2)(C(F)(F)F)C(F)(F)F)CC1 (stereo not shown)
Between A and B , whose measured pIC50 reads higher? Refer to your chosen item by its label in the answer.
A

* * *

- target_system: RORγ ligand binding domain (Homo sapiens)
- method_description: RORγ co-factor recruitment assay (FRET)
- Format: biochemical
- Parameters: made in house; host or cells: E. coli BL21DE3 Star
- condition_parameters: inhibition of recruitment of SRC-1 peptide (NCOA1_677-700) to hRORγ LBD, HTRF read-out
parameter_measured: IC50 (nM)

Some compounds with known IC50 results, for comparison:
| compound | target_system | IC50 / nM |
| --- | --- | --- |
| CC(=O)N1Cc2cc(S(C)(=O)=O)ccc2C1C(=O)Nc1ccc(C(CC(=O)NCCF)(C(F)(F)F)C(F)(F)F)cc1 (centres unmarked) | RORγ ligand binding domain (Homo sapiens) | 316 |
| N#CC(c1ccc(NC(=O)C2NCc3cc(S(=O)(=O)CC4CC4)ccc32)cc1)(C(F)(F)F)C(F)(F)F (centres unmarked) | RORγ ligand binding domain (Homo sapiens) | 100 |
| CC(=O)N1Cc2cc(S(C)(=O)=O)ccc2C1C(=O)Nc1ccc(C(CCO)(C(F)(F)F)C(F)(F)F)cc1 (centres unmarked) | RORγ ligand binding domain (Homo sapiens) | 158 |

A = CC(=O)N1Cc2cc(S(C)(=O)=O)ccc2C1C(=O)Nc1ccc(C(c2nnn(C)n2)(C(F)(F)F)C(F)(F)F)cc1 (centres unmarked)
B = CS(=O)(=O)c1ccc2c(c1)CN(C=O)C2C(=O)Nc1ccc(C(C#N)(C(F)(F)F)C(F)(F)F)cc1 (centres unmarked)
C = CC(=O)N1Cc2cc(S(C)(=O)=O)ccc2C1C(=O)Nc1ccc(C(NCCS(C)(=O)=O)(C(F)(F)F)C(F)(F)F)cc1 (centres unmarked)
D = COC1(CNC(c2ccc(NC(=O)C3c4ccc(S(C)(=O)=O)cc4CN3C(C)=O)cc2)(C(F)(F)F)C(F)(F)F)CC1 (centres unmarked)
Please list these in order of increasing IC50. Thank you! Returns: the labels listed in the requested order.
B, A, D, C
(B: 39.8 nM, A: 126 nM, D: 200 nM, C: 1000 nM)

* * *

- target_system: RORγ ligand binding domain (Homo sapiens)
- method_description: RORγ radioligand competition binding assay (SPA)
- condition_parameters: competition with tritiated 2-(4-(ethylsulfonyl)phenyl)-N-(4-(2-(methoxymethyl)phenyl)thiophen-2-yl)acetamide (25 nM), hRORγ LBD
parameter_measured: IC50 (nM)

| compound | IC50 / nM |
| --- | --- |
| CC(=O)N1Cc2cc(S(C)(=O)=O)ccc2C1C(=O)Nc1ccc(C(CC(=O)NC(C)(C)C)(C(F)(F)F)C(F)(F)F)cc1 (stereo not drawn) [Example 43] | 794 |

P = CC(=O)N1Cc2cc(S(C)(=O)=O)ccc2C1C(=O)Nc1ccc(C(NCCS(C)(=O)=O)(C(F)(F)F)C(F)(F)F)cc1 (stereo not drawn) [Example 26]
Q = COCC(=O)N1Cc2cc(S(C)(=O)=O)ccc2C1C(=O)Nc1ccc(C(C#N)(C(F)(F)F)C(F)(F)F)cc1 (stereo not drawn) [Example 8]
Select the item with the higher value of IC50 from the options P and Q listed. # reply format: chosen label
P
(P: 631 nM, Q: 12.6 nM)

* * *

- target_system: RORγ ligand binding domain (Homo sapiens, UniProt P51449)
- method_description: RORγ co-factor recruitment assay (FRET)
- Type: biochemical
- Parameters: made in house; host or cells: E. coli BL21DE3 Star
- condition_parameters: inhibition of recruitment of SRC-1 peptide (NCOA1_677-700) to hRORγ LBD, HTRF read-out
- Procedure: RORγ Co-Factor Recruitment Assay A high throughput coactivator binding assay for the identification of inverse agonists of the recruitment of peptide SRC-1 (NCOA1_677-_700) to the RORγ ligand binding domain was established. […] Plates were incubated at rt for 1 hour in the dark, prior to reading in a Pherastar multi-mode plate reader using HTRF filter set (ex 320, em 612 and 665). […]
parameter_measured: IC50 (µM)

| compound | parameter_measured | measured_number |
| --- | --- | --- |
| CCCNC(c1ccc(NC(=O)C2c3ccc(S(C)(=O)=O)cc3CN2C(C)=O)cc1)(C(F)(F)F)C(F)(F)F (centres unmarked) [Example 16] | IC50 | 0.0398 |
| CC(=O)N1Cc2cc(S(C)(=O)=O)ccc2C1C(=O)Nc1ccc(C(NCCCS(C)(=O)=O)(C(F)(F)F)C(F)(F)F)cc1 (centres unmarked) [Example 22] | IC50 | 1 |
| CS(=O)(=O)c1ccc2c(c1)CN(C(=O)CCN)C2C(=O)Nc1ccc(C(C#N)(C(F)(F)F)C(F)(F)F)cc1 (centres unmarked) [Example 11] | IC50 | 0.158 |

P = CCS(=O)(=O)c1ccc2c(c1)CN(C(C)=O)C2C(=O)Nc1ccc(C(C#N)(C(F)(F)F)C(F)(F)F)cc1 (centres unmarked) [Example 14]
Q = CC(=O)N1Cc2cc(S(C)(=O)=O)ccc2C1C(=O)Nc1ccc(C(C#N)(C(F)(F)F)C(F)(F)F)cc1 (centres unmarked) [Example 2]
For the pair P and Q , which member has the lower IC50 number? Kindly give the label for the entry you pick.
P

P = COC(=O)CC(c1ccc(NC(=O)C2c3ccc(S(C)(=O)=O)cc3CN2C(C)=O)cc1)(C(F)(F)F)C(F)(F)F (centres unmarked) [Example 32]
Q = CC(=O)N1Cc2cc(S(C)(=O)=O)ccc2C1C(=O)Nc1ccc(C(n2ccnn2)(C(F)(F)F)C(F)(F)F)cc1 (centres unmarked) [Example 29]
R = CC(=O)NCCC(c1ccc(NC(=O)C2c3ccc(S(C)(=O)=O)cc3CN2C(C)=O)cc1)(C(F)(F)F)C(F)(F)F (centres unmarked) [Example 45]
Put the items in order so that reported IC50 rises from first to last. Respond with the label ranking, as requested.
P, Q, R
(P: 0.0501 µM, Q: 0.1 µM, R: 0.2 µM)

1 = CC(=O)N1Cc2cc(S(C)(=O)=O)ccc2C1C(=O)Nc1ccc(C(N(C)C)(C(F)(F)F)C(F)(F)F)cc1 (centres unmarked) [Example 25]
2 = CC(=O)N1Cc2cc(S(C)(=O)=O)ccc2C1C(=O)Nc1ccc(C(NCCO)(C(F)(F)F)C(F)(F)F)cc1 (centres unmarked) [Example 21]
3 = CC(=O)N1Cc2cc(S(C)(=O)=O)ccc2C1C(=O)Nc1ccc(C(CC(=O)N(C)C)(C(F)(F)F)C(F)(F)F)cc1 (centres unmarked) [Example 42]
Reorder the items by IC50, least to greatest. Answer by listing the labels in the order asked for.
1, 2, 3
